Give pKd for every item shown.
biological target: T1, human PAI-1 captured on immobilized human vitronectin (human, UniProt P04004 20-478); test: Biacore, hPAI-1 on vitronectin chip, 1:1 model
T1 construct: non-covalent complex formed on the chip or plate; also called PAI-1/Vn complex; Vn captured hPAI-1
T1 sequence (chain, as listed by the source limits assumed, chain 1 of 2): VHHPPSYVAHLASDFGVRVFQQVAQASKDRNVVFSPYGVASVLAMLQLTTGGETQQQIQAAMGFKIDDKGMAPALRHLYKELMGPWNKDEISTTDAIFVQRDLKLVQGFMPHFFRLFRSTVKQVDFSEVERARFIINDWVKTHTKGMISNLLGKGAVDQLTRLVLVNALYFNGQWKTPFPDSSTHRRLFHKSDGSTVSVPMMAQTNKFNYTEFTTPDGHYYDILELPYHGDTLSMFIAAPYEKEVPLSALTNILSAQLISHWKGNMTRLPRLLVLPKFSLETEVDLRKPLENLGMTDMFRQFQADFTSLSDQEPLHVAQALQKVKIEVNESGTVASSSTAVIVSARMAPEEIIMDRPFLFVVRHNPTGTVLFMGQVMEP
T1 sequence (P04004 20-478 limits assumed, chain 2 of 2): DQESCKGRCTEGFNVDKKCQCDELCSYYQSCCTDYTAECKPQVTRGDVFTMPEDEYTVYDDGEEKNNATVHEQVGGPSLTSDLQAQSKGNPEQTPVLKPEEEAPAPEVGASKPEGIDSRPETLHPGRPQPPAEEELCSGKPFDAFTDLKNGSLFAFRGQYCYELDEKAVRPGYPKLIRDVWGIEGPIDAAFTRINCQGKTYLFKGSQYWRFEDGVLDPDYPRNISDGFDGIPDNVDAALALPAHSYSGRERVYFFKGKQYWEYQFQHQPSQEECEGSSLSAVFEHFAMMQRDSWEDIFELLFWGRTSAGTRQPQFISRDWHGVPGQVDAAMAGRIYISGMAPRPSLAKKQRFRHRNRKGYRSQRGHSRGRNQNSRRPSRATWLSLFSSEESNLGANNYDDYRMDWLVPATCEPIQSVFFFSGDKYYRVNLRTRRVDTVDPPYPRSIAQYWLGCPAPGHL
Answers are plain numbers, as −log10 of the molar value.

Please review the entries below; each comes with its answer.
{"binder": "A44-hv6 (antibody, V domains shown, humanized A44, HEK293; constant regions as for A44-hv1; also called LC3 x HC3; variant 6) VH: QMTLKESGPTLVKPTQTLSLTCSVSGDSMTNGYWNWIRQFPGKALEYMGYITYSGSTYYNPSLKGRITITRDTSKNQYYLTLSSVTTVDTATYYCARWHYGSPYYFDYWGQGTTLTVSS VL: DIKMTQSPSSLSASVGDRVTITCKASQDINSYLSWLQQKPGKSPKTLIYRANRSVDGVPSRFSGSGSGQDYSLTISSLQPEDLATYYCLQYDEFPPTFGGGTKLEIK", "pKd": 10.88}
{"binder": "A44 (antibody, mouse IgG1, V domains shown, mouse IgG1/kappa; also called mA44; A44 parental) VH: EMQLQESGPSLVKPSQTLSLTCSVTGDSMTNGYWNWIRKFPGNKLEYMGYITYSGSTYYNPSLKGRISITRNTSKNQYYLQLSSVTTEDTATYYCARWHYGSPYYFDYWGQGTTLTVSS VL: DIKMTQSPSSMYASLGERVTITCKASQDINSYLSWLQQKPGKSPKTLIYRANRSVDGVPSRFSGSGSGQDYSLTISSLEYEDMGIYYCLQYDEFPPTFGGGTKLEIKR", "pKd": 10.39}

Please look at the following binder next.
Ask: What measured pKd goes with A44-hv14 (antibody, V domains shown, humanized A44, HEK293; constant regions as for A44-hv1; also called LC4 x HC5b; variant 14) VH: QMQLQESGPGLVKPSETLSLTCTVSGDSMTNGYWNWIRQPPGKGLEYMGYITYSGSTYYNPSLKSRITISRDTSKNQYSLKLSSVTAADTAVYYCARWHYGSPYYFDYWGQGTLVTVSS VL: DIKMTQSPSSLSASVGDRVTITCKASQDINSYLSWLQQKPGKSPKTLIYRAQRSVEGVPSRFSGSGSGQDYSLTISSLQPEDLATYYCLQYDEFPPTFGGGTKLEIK ?
Result: 11.02
